Recorded values, source ChEMBL document CHEMBL4715933.

assay.procedure: Oral bioavailability in Wistar Han rat at 0.5 mg/kg
Type: ADME, organism-based
assay.conditions: in vivo
measured.quantity: bioavailability (%)
// units = %; emit number, no label

Recorded bioavailability (molecule "COc1cccc(F)c1-c1cc2c(cn1)cnn2-c1cccc(N2CC3CCC(C2)N3C)n1" ): 67

----------
assay.procedure: Mean residence time in Wistar Han rat at 2 mg/kg, iv
Type: ADME, organism-based
assay.conditions: in vivo
measured.quantity: MRT (h)
Provide the reading as a plain figure in h.

Per the record, "COc1ccncc1-c1ccc2cnn(-c3ccnc(N4CCOCC4)c3)c2c1" has MRT of 1.2

----------
Reported values of Ratio IC50 for individual entries
Species on record: Homo sapiens
assay.procedure: Selectivity ratio of IC50 for JAK1 (unknown origin) by ATP competitive binding assay to IC50 for N-terminal GST-tagged human recombinant HPK1 (1 to 346 residues ) expressed in baculovirus-infected Sf9 cells by HTRF lanthascreen binding assay

Guide cases for Ratio IC50, answers given:
CCOc1cccc(F)c1-c1cc2c(cn1)cnn2-c1ccc(N2CCN(C)CC2)cc1    18
COc1cccc(F)c1-c1cc2c(cn1)cnn2-c1ccc(N2CCN(C)CC2)cc1    112
COC(=O)N1CCN(c2cccc(-n3ncc4cnc(-c5c(F)cccc5OC)cc43)n2)CC1    65

Now take the following compound into account.
// Ratio IC50 lookup, compound = "COc1cccc(F)c1-c1cc2c(cn1)cnn2-c1ccnc(N2CCN(C)CC2)c1" , result: 167
